study_target: human Claudin18.2 (human)
test_name: cell-based or functional assay
metric_name: CDC % Relative activity
Report as: number unit

# annotated cases, reported CDC % Relative activity shown
binder	reported
411B4G4 (antibody, V domains shown) VH: DVQLVESGGGLVQPGGSRKLSCAASGFTFSGFGLHWIRQTPEKGLEWVAYISSGSRPIYYADTVKGRFTISRDNPKNTLFLQMTSLRSEDTAMYFCARFYYGNSFDHWGQGTLVTVSA VL: DIVMTQSPSFLTVTAGEKVTMSCRSSQSLLNSGNQRNYLTWYQQKPGQPPKLLIYWASTRESGVPDRFTGSGSGTDFTLTISSVQAEDLALYYCQNAYSFPLTFGAGTKLELK	68.3%
234C9G5 (antibody, V domains shown) VH: QAYLQQSGAELVRSGASVKMSCKASGYAFTSHNMHWVKQTPGQGLEWIGYISPGNGYTNYNQKFRGKATLTADTSSSTAYMQIGSLTSEDSAVYFCTRDYYGNSFAYWGQGTLVTVSA VL: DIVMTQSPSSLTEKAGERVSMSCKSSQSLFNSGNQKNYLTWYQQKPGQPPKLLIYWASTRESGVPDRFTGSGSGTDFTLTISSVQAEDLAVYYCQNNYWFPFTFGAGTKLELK	175%

Okay, now this binder:
Q: Consider the binder shown here: 242F5H2 (antibody, V domains shown) VH: EVMLVESGGGLVKPGGSLKLSCAASGFTFSSYTVSWVRQTPEKRLEWVATSIVGSTYTYFPDSVKGRFTISRDFAKNTLFLQMSSLRSEDTAMYYCSRLGRGNAMDYWGQGTSVSVSS VL: DIVMTQSPSSLTVTAGEKVTLNCRSSQSLLNSGNQKNYLTWYQQKPGQPPKLLIYWASTRESGVPDRFTGSGSGTDFTLTISSVQADDLAVYYCQNGYSYPFTFGSGTKLEIK What is its recorded CDC % Relative activity?
A: 149%
